# subjectOfTest: RNA-binding domain (RBD) of the SARS-CoV-2 nucleocapsid (N) protein, RBD (44–180) (Severe acute respiratory syndrome coronavirus 2, UniProt P0DTC9)
pKd: −log10 of the molar value.
measuredEndpoint: pKd

- Nc1ncnc2c1ncn2[C@@H]1O[C@H](COP(=O)(O)OP(=O)(O)OP(=O)(O)O)[C@@H](O)[C@H]1O: 2.48

Origin of values: paper PMC7808732
